Measured values drawn from PubChem BioAssay AID687023 for this set.

Can you tell me activity change, negative = inhibition for the items I'm about to list?
- procedure-details: inhibition of Env-driven cell fusion – HIV entry, plate reader, dry powder, dose response (AID 687023)
- condition-info: Env-mediated cell-cell fusion, plate reader; at 35 µM (top of the series)
Answers are plain numbers, in %.

>  <smiles-record>
Cc1ccc(S(=O)(=O)Nc2cccc3c2O[C@@H](CN(C)Cc2ccc(Cl)c(Cl)c2)[C@@H](C)CN([C@H](C)CO)C3=O)cc1

>  <output-unit>
%

>  <activity change, negative = inhibition>
-87.2

$$$$

Give activity change, negative = inhibition for all compounds that follow.
1. N=C1Sc2ccccc2C2=NCCCN12
2. Cc1ccc(C)n1-c1ccc(C(=O)O)c(O)c1
3. Cc1noc(C)c1S(=O)(=O)Nc1cccc2c1O[C@@H](CN(C)Cc1ccc(C(F)(F)F)cc1)[C@H](C)CN([C@@H](C)CO)C2=O
4. CCOc1ccc(S(=O)(=O)NCc2ccccn2)cc1
5. Cc1noc(C)c1S(=O)(=O)Nc1cccc2c1O[C@@H](CN(C)Cc1ccc(C(F)(F)F)cc1)[C@H](C)CN([C@H](C)CO)C2=O
6. COc1ccccc1CCNCc1ccc(OC)c(OCc2ccccc2)c1

2.5
0.014
56
34.6
15.3
-63.1
